Cited source: the NIST ThermoML archive (doi:10.1021/je900550v)

conditions: 282.4 K; 101.33 kPa; Liquid; Vibrating tube method
PROPERTY MEASURED: mass density (kg/m3)

In [3]: df
Out[3]:
                                   compound  numeric_result
0  C[NH2+]CCO.O=C[O-] [2-hydroxy-N-methylethanaminium formate]         1137.04
1  CCC(=O)[O-].C[NH2+]CCO [2-hydroxy-N-methylethanaminium propionate]         1081.53
2  CC(C)C(=O)[O-].C[NH2+]CCO [2-hydroxy-N-methylethanaminium isobutyrate]          1053.4
3  CCCC(=O)[O-].C[NH2+]CCO [N-methyl-2-hydroxyethylammonium butanoate]         1049.85
4  CCCCC(=O)[O-].C[NH2+]CCO [2-hydroxy-N-methylethanaminium pentanoate]         1026.84
5  CC(=O)[O-].C[NH2+]CCO [N-methyl-2-hydroxyethylammonium acetate]         1110.28
